Sourced from PubChem BioAssay AID1963840

Below, each entry is listed with its recorded viability, T/C.
# Test system: 695427-040-R-J1-PDC complex spheroid viability
# test_description: Anticancer human tumor 695427-040-R-J1-PDC patient-derived colon adenocarcinoma cell line growth inhibition [POLQ]
# setup_conditions: second compound 0.0316 µM; first compound 0.00316 µM; hits give low values
# Experimental: Multicellular complex tumor spheroid response to Polymerase (POL) inhibitors (novobiocin, ART-558, RP6685) in combination with a variety of drugs and investigational agents in selected tumor cell lines The POL inhibitors (novobiocin, ART-558, and RP6685) were evaluated both individually and in combination with standard of care and investigational anticancer small molecules within a complex spheroid model of solid tumors. . […]
Dear colleague, please return just the value in %, with no unit written.

compound: Cn1ncnc1[C@H]1c2n[nH]c(=O)c3cc(F)cc(c23)N[C@@H]1c1ccc(F)cc1 + COC1C(OC(N)=O)C(O)C(Oc2ccc3c(O)c(NC(=O)c4ccc(O)c(CC=C(C)C)c4)c(=O)oc3c2C)OC1(C)C
test_result: 93.5
//
compound: COc1cccc(OCCCN)c1-c1cc(Nc2cnc(C#N)cn2)n[nH]1 + Nc1ccc(C#CCN(C(=O)Cc2ncc(C(F)(F)F)cc2C(F)(F)F)c2ccc(F)cc2)nn1
test_result: 106
//
compound: C=CCn1c(=O)c2cnc(Nc3ccc(N4CCN(C)CC4)cc3)nc2n1-c1cccc(C(C)(C)O)n1 + Cc1cccc(N(C)C(=O)C2C(O)CCN2c2nc(C)cc(C(F)(F)F)c2C#N)c1
test_result: 100

Item: CC[C@@]1(O)C(=O)OCc2c1cc1n(c2=O)Cc2cc3c(CN(C)C)c(O)ccc3nc2-1 + COC1C(OC(N)=O)C(O)C(Oc2ccc3c(O)c(NC(=O)c4ccc(O)c(CC=C(C)C)c4)c(=O)oc3c2C)OC1(C)C | viability, T/C: 97.8

Item: CC[C@@]1(O)C(=O)OCc2c1cc1n(c2=O)Cc2cc3c(CN(C)C)c(O)ccc3nc2-1 + Cc1cccc(N(C)C(=O)C2C(O)CCN2c2nc(C)cc(C(F)(F)F)c2C#N)c1 | viability, T/C: 104

Item: COc1cccc(OCCCN)c1-c1cc(Nc2cnc(C#N)cn2)n[nH]1 + Cc1cccc(N(C)C(=O)C2C(O)CCN2c2nc(C)cc(C(F)(F)F)c2C#N)c1 | viability, T/C: 95.4

Item: CCc1c2c(nc3ccc(O)cc13)-c1cc3c(c(=O)n1C2)COC(=O)[C@]3(O)CC + COC1C(OC(N)=O)C(O)C(Oc2ccc3c(O)c(NC(=O)c4ccc(O)c(CC=C(C)C)c4)c(=O)oc3c2C)OC1(C)C | viability, T/C: 97.5

Item: C=CCn1c(=O)c2cnc(Nc3ccc(N4CCN(C)CC4)cc3)nc2n1-c1cccc(C(C)(C)O)n1 + Nc1ccc(C#CCN(C(=O)Cc2ncc(C(F)(F)F)cc2C(F)(F)F)c2ccc(F)cc2)nn1 | viability, T/C: 101

Item: CCc1c2c(nc3ccc(O)cc13)-c1cc3c(c(=O)n1C2)COC(=O)[C@]3(O)CC + Nc1ccc(C#CCN(C(=O)Cc2ncc(C(F)(F)F)cc2C(F)(F)F)c2ccc(F)cc2)nn1 | viability, T/C: 116

###

# Tested on: 695427-040-R-J1-PDC complex spheroid viability
# test_description: Anticancer human tumor 695427-040-R-J1-PDC cell line growth inhibition [POLQ];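 note: spheroids exposed to compounds for seven days; 100% = DMSO vehicle control viability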
# setup_conditions: second compound 3.16 µM; first compound 10 µM; hits give low values
Below, each entry is listed with its recorded viability, T/C.
Dear colleague, please return just the value in %, with no unit written.

Here's what some known entries look like.
compound: Nc1ccn(C2OC(CO)C(O)C2(F)F)c(=O)n1 (stereo not drawn) + Nc1ccc(C#CCN(C(=O)Cc2ncc(C(F)(F)F)cc2C(F)(F)F)c2ccc(F)cc2)nn1
viability, T/C [%]: 65.8
//
compound: CNCc1ccc(-c2[nH]c3cc(F)cc4c3c2CCNC4=O)cc1 + Nc1ccc(C#CCN(C(=O)Cc2ncc(C(F)(F)F)cc2C(F)(F)F)c2ccc(F)cc2)nn1
viability, T/C [%]: 118

Item: C#Cc1c(F)ccc2cc(O)cc(-c3ncc4c(N5CC6CCC(C5)N6)nc(OCC56CCCN5CC(F)C6)nc4c3F)c12 (stereo not drawn) + Cc1cccc(N(C)C(=O)C2C(O)CCN2c2nc(C)cc(C(F)(F)F)c2C#N)c1 | viability, T/C: 76.1
